target: Ab0223; assay: BLI 1-pt +indinavir
Sequence (VH, as listed by the source limits assumed, form in doubt, chain 1 of 2): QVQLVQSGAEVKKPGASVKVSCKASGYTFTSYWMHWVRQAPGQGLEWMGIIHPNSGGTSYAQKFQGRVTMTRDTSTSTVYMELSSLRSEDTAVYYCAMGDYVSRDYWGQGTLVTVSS
Sequence (VL, as listed by the source limits assumed, form in doubt, chain 2 of 2): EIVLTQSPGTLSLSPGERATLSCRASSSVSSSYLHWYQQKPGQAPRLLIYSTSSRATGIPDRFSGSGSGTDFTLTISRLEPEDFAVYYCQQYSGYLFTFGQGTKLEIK
pKd: −log10 of the molar value.
Returns one of 1 or -1; 1 when pKd is >= 8.

Take a look at these entries with their results.
binder	answer-label
Ab0942 (antibody, V domains shown) VH: EVQLVESGGGLVQPGGSLRLSCAASGFDFSSYSIHWVRQAPGKGLEWVASISPYYGSTYYADSVKGRFTISADTSKNTAYLQMNSLRAEDTAVYYCARYYAWYKYDLYLGSLGFDYWGQGTLVTVSS VL: DIQMTQSPSSLSASVGDRVTITCRASQSVSSAVAWYQQKPGKAPKLLIYSASSLYSGVPSRFSGSRSGTDFTLTISSLQPEDFATYYCQQGGYSLITFGQGTKVEIK	-1
Ab0938 (antibody, V domains shown) VH: EVQLVESGGGLVQPGGSLRLSCAASGFDFSSYSIHWVRQAPGKGLEWVASIAPYYGSTYYADSVKGRFTISADTSKNTAYLQMNSLRAEDTAVYYCARYYEWYKYDLYLGSLGFDYWGQGTLVTVSS VL: DIQMTQSPSSLSASVGDRVTITCRASQSVSSAVAWYQQKPGKAPKLLIYSASSLYSGVPSRFSGSRSGTDFTLTISSLQPEDFATYYCQQGGYSLITFGQGTKVEIK	-1

Q: In plain terms: is recorded pKd at least 8 for Ab0935 (antibody, V domains shown) VH: EVQLVESGGGLVQPGGSLRLSCAASGFDFSSASIHWVRQAPGKGLEWVASISPYYGSTYYADSVKGRFTISADTSKNTAYLQMNSLRAEDTAVYYCARYYEWYKYDLYLGSLGFDYWGQGTLVTVSS VL: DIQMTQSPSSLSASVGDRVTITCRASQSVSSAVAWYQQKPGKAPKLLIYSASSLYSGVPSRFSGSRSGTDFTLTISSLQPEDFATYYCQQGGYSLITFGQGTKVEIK ?
A: -1

Q: In plain terms: is recorded pKd at least 8 for Ab0936 (antibody, V domains shown) VH: EVQLVESGGGLVQPGGSLRLSCAASGFDFSSYSIHWVRQAPGKGLEWVAAISPYYGSTYYADSVKGRFTISADTSKNTAYLQMNSLRAEDTAVYYCARYYEWYKYDLYLGSLGFDYWGQGTLVTVSS VL: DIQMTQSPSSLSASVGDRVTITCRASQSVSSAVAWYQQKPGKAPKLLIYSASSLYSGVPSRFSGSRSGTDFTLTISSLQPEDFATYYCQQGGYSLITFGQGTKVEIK ?
A: 1

Q: In plain terms: is recorded pKd at least 8 for Ab0941 (antibody, V domains shown) VH: EVQLVESGGGLVQPGGSLRLSCAASGFDFSSYSIHWVRQAPGKGLEWVASISPYYGATYYADSVKGRFTISADTSKNTAYLQMNSLRAEDTAVYYCARYYEWYKYDLYLGSLGFDYWGQGTLVTVSS VL: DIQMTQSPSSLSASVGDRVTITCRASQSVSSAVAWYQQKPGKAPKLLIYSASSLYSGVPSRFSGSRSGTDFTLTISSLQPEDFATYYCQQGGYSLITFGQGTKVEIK ?
A: 1

Q: In plain terms: is recorded pKd at least 8 for Ab0943 (antibody, V domains shown) VH: EVQLVESGGGLVQPGGSLRLSCAASGFDFSSYSIHWVRQAPGKGLEWVASISPYYGSTYYADSVKGRFTISADTSKNTAYLQMNSLRAEDTAVYYCARYYEWYAYDLYLGSLGFDYWGQGTLVTVSS VL: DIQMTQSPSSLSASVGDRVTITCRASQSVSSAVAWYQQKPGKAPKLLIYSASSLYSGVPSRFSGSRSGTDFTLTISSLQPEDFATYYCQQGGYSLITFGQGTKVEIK ?
A: -1
